Just for reference, patent US20130045952A1 is where these values come from.

testedSystem: His6-PYL2 / biotin-PP2C (Arabidopsis thaliana, UniProt O80992)
Construct: PYL2 (residues 14-188), and HAB1 (residues 172-511) were prepared as recombinant proteins in E. coli; made in house; host or cells: E. coli
Sequence (O80992 14-188): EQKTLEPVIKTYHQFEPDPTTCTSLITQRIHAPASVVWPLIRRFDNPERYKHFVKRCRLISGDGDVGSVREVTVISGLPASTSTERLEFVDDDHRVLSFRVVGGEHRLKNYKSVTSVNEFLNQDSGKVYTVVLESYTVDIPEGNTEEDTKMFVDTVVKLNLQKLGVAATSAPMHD
testDescription: AlphaScreen luminescence proximity assay, PYL2-PP2C interaction
Format: biochemical
conditionParameters: 100 nM His6-PYL2, 100 nM biotin-PP2C, 100 μM agonist; normalized against a pyrabactin control
measuredParameter: Stimulation of the interaction between PYL2 and PP2C (binding signal)

The examples below pair each entry with its known result.
{"molecule": "CC(=O)c1cccc(N/C=C/C(=O)c2ccc(Cl)c(Cl)c2)c1", "dataValue": "++ (++ is 25,000−75,000)"}
{"molecule": "CC(C)c1ccccc1OCCNS(=O)(=O)c1ccc2ccccc2c1", "dataValue": "++ (++ is 25,000−75,000)"}
{"molecule": "CSCCCC(NS(=O)(=O)c1ccc(Br)c2ccccc12)C(=O)O (stereo not drawn)", "dataValue": "+ (+ is <25,000)"}
{"molecule": "O=C(CNS(=O)(=O)c1ccccc1)OCc1ccc(Cl)c(Cl)c1", "dataValue": "+ (+ is <25,000)"}
{"molecule": "CCN1C(=O)c2cccc3c(S(=O)(=O)NC[C@@H]4CCCO4)ccc1c23", "dataValue": "+ (+ is <25,000)"}

Which Stimulation of the interaction between PYL2 and PP2C (binding signal) reading was recorded for the molecule CCOC(=O)CNS(=O)(=O)c1ccc2c3c(cccc13)C(=O)N2CC ?
+ (+ is <25,000)

Likewise for CCCCOc1cccc(C(=O)NC(=S)Nc2ccc(S(N)(=O)=O)cc2)c1 ?
+ (+ is <25,000)

Likewise for O=C1Nc2ccc(S(=O)(=O)NCc3ccccn3)c3cccc1c23 ?
+ (+ is <25,000)

Likewise for CCOC(=O)C1OC(NC(=O)CSc2nnc(-c3ccccc3OCC)o2)C(C#N)C1C (stereo not drawn) ?
++ (++ is 25,000−75,000)
